- Target: T1, EsCas13d, nuclease-dead (Eubacterium siraeum, UniProt B0MS50, R295A;H300A;R849A;H854A)
- T1 sequence: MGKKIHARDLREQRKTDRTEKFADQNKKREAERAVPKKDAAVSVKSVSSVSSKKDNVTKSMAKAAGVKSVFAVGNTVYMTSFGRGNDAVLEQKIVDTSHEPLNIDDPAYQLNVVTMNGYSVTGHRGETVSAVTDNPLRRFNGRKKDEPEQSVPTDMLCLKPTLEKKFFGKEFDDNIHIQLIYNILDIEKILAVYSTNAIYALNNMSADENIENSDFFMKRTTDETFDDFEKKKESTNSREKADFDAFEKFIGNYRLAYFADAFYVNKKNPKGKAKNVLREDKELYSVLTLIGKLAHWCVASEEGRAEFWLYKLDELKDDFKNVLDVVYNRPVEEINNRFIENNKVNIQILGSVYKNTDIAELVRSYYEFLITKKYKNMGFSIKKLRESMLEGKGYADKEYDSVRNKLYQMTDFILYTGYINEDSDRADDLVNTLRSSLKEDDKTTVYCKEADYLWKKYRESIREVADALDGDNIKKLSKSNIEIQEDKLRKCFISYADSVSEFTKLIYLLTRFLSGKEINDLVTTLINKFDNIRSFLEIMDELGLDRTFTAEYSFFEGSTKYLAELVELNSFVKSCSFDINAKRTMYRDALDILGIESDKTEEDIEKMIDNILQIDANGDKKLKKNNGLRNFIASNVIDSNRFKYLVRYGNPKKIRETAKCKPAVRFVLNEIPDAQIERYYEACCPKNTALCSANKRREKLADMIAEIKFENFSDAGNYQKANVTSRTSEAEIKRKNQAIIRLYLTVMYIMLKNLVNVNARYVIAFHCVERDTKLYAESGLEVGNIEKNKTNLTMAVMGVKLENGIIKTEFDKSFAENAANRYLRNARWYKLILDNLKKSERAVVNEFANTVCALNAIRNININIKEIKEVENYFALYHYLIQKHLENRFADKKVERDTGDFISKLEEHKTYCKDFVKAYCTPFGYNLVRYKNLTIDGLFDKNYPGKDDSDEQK
- Assay: crRNA (strand 1, pre-loaded); Mg2+; 40 mM Tris-HCl pH 7.5, 150 mM NaCl, 6 mM MgCl2, 1 mM DTT, 0.1% Tween-20, 0.2 mg/ml BSA; 25 C; 10 min per concentration, then washed
- Condition: tags: His6-TwinStrep-SUMO cleaved; N-terminal SNAP kept (SNAP-Surface 488); label: 3' end held by stalled T7 RNA polymerase
Result Type: Kd (nM)
Give a bare numeral; the unit nM is implied.

The value of Kd measured for the binder target 1 insG 3' of 21,insU 3' of 7 (mixed) RNA 1: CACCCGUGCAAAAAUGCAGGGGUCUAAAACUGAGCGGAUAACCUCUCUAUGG RNA 2: GGGAAUGGAUCCACAUCUACGAAUUCGUACCGAUAGAGAGGUUAUCUCGCUCACCGAGAUCGGAAGAGCACACGU turned out to be 73

The value of Kd measured for the binder target 1 insU 3' of 12,insG 3' of 8 (mixed) RNA 1: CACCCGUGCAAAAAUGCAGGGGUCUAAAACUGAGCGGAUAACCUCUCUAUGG RNA 2: GGGAAUGGAUCCACAUCUACGAAUUCGUACCAUAGAGAGGUUUAUGCCGCUCACCGAGAUCGGAAGAGCACACGU turned out to be 9.41

The value of Kd measured for the binder target 2 MT 5'PFS UAU 3'PFS ACU (mixed) RNA 1: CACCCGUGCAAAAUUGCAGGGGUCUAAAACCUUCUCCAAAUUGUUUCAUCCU RNA 2: GGGAAUGGAUCCACAUCUACGAAUUCUAUAGGAUGAAACAAUUUGGAGAAGACUAGAUCGGAAGAGCACACGU turned out to be 76

The value of Kd measured for the binder target 1 MT 5'PFS AAC 3'PFS UUG (mixed) RNA 1: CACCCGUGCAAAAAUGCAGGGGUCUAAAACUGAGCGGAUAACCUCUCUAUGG RNA 2: GGGAAUGGAUCCACAUCUACGAAUUCAACCCAUAGAGAGGUUAUCCGCUCAUUGAGAUCGGAAGAGCACACGU turned out to be 15.3
